Would you kindly list growth for each of these compounds?
Test system: UO-31 renal
Assay: NCI-60 one-dose screen, 48 h (100 = growth as untreated, 0 = no growth, -100 = all killed)
Details: 10 µM unless noted
Compounds without any hit were thinned out: in the full panel of roughly 83,000, 20% have a hit.
Answer format: numeric, % implied, no suffix.

QUERY: Any idea what its growth is? The compound is `Nc1cc2c(cc1Br)-c1cc(Cl)ccc1C2=O`
RESULT: 67.1

QUERY: Reported growth for `COc1ccc2c(c1)/C(=C/c1sc(=S)n(Cc3ccco3)c1O)C=N2` : what is it?
RESULT: 58.6

QUERY: Data request, read-out growth, for `C/C(=N/NC(N)=S)c1sc(Nc2cccc(Cl)c2)nc1C`
RESULT: 35.7

QUERY: Give its growth value. Item: `COc1ccc2sc3c(NCCO)nc4ccccc4c3c(=O)c2c1`
RESULT: 79.4

QUERY: For `COC(=O)c1ccc2[nH]c(O)c(C(=Nc3ccc(N(C)C(=O)CN4CCN(C)CC4)cc3)c3ccccc3)c2c1` , what is its reported growth?
RESULT: 16

QUERY: Find the recorded growth belonging to CNc1nc2c(s1)C(c1cc(F)ccc1F)CC(=O)N2 (configuration not stated) and report it.
RESULT: 63.9

QUERY: // lookup growth for `N/C(=N\c1nc2ccccc2s1)NC(=O)Nc1cccc2ccccc12`
RESULT: 53.4

QUERY: # input compound: `COc1ccc(OC)c(/C=C/c2nnc(Nc3ccccc3)o2)c1` ; wanted: its growth
RESULT: 94.5

QUERY: State the recorded growth for this entry: `Cc1nc(/N=C(\N)NC(=O)Nc2cccc(Cl)c2)sc1C`
RESULT: 84

QUERY: If you can, please state the reported growth value of `COc1cc2oc(-c3ccc(O)cc3)cc(=O)c2c(O)c1-c1c(OC)cc(O)c2c(=O)cc(-c3ccc(O)cc3)oc12` .
RESULT: 14.6

QUERY: If you can, please state the reported growth value of `Cc1nc(NC(=O)COc2ccc(/C=C3\Cc4ccc(Cl)cc4C3=O)cc2)sc1C` .
RESULT: -88.5

QUERY: Look at this compound and give its reported growth. `Cc1[nH]c(C(=O)Nc2ccc(C(=O)N3CCNCC3)cc2OC(C)C)c(Cl)c1Cl`
RESULT: 47.9

QUERY: Bench note: what growth did `CCN(CC)CCCNc1nc2ccccc2c2c(=O)c3cc(Cl)ccc3sc12` show?
RESULT: 33.8

QUERY: Tell me the measured growth of `CC1=C(C)C(=O)C(Nc2cccc(C(=O)OC(C)(C)C)c2)=C(Br)C1=O` , please.
RESULT: 71.6

QUERY: Quick check: growth of `COC(=O)Nc1ccc(-c2nc(-c3cccc(OC)c3)c(-c3ccnc(Br)c3)[nH]2)cc1` ?
RESULT: 38.6

QUERY: Given the compound `CN1CCN(c2ccc(-c3ccc4ncc(C#N)c(Nc5ccc(F)c(Cl)c5)c4c3)cn2)CC1` , what is its reported growth?
RESULT: 28.7

QUERY: Look up growth for this compound: CCCCCCCCCCCCCCCCCC1OCC(COC(=O)O[C@]2(CC)C(=O)OCc3c2cc2n(c3=O)Cc3cc4ccccc4nc3-2)O1 (some centres not stated)
RESULT: 73.1

All values here come from PubChem BioAssay (NCI).
